biological target: AHR (Homo sapiens); experiment: In vitro assay 1: antagonism in human cell line (transactivation assay, kynurenic acid prestimulated); settings: Assay 1: AHR-luc Hum Antagonism IC50 [M], 150 μM kynurenic acid, 20 hours, firefly luciferase
Sequence (P35869 11-848): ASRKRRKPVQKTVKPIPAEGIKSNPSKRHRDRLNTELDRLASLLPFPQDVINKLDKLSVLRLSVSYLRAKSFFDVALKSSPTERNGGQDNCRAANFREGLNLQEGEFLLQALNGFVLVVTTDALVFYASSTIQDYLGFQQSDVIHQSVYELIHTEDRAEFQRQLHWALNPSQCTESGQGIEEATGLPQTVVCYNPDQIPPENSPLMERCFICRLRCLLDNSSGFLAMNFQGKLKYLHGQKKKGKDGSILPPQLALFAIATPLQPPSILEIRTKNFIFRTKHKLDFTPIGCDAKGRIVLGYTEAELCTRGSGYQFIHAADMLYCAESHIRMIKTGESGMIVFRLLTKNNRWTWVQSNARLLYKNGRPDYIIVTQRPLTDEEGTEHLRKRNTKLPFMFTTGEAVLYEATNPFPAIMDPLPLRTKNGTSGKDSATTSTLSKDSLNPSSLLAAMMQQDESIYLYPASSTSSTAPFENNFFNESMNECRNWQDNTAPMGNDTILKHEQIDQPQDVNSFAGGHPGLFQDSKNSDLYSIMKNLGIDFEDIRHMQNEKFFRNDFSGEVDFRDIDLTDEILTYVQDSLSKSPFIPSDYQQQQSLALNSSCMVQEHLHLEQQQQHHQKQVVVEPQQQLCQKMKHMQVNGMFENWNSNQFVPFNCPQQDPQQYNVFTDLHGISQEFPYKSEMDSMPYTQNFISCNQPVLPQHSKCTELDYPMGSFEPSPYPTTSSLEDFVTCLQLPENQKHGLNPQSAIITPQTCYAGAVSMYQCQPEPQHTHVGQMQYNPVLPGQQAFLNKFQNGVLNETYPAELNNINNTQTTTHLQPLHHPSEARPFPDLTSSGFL
observedProperty: IC50 (M)
Enter your answer as a number in M; do not include the unit.

// solved cases for IC50 follow
O=C(N[C@H]1CCCC[C@@H]1O)c1cc(-c2ccc(Cl)cc2)nn(-c2cccc(F)c2)c1=O (single isomer, unassigned) [Example 118]    3.25e-08
O=C(N[C@H]1CCC[C@@H]1O)c1cc(-c2ccc(Cl)cc2)nn(-c2cccc(F)c2)c1=O (single isomer, unassigned) [Example 125]    1.86e-07
O=C(NCC(O)C(F)(F)F)c1cc(-c2ccc(C(F)F)cc2)nn(-c2cccc(F)c2)c1=O (single isomer, unassigned) [Example 95]    6.77e-09

Turning now to a further compound:
Task: Could you tell me which IC50 is on file for CC(CCO)NC(=O)c1cc(-c2ccc(C(F)(F)F)cc2)nn(-c2cccc(F)c2)c1=O (single isomer, unassigned; (+)) [Example 254] ?
Result: 1.1e-08
